- protocolNotes: Solubility of free base in PEG-300/Cremophor EL/Ethanol vehicles
- Assay type: physicochemical
- setupConditions: PEG-300/Cremophor EL/Ethanol 42.5/42.5/15, organic solvent or mixture; PEG-300/Cremophor EL/Ethanol ratio 42.5/42.5/15; RT; read-out: Solubility (mg/mL) at RT
observable: solubility (mg/mL)
One number for each entry, in mg/mL.

Sample Nc1ncc(-c2cnn(CCO)c2)c2scc(-c3ccc(NC(=O)Nc4cccc(F)c4)cc3)c12 ; solubility observed: 10

###

- protocolNotes: Pharmacokinetics of IV formulation in humans (Phase I, advanced solid tumors)
- Type: in vivo
- setupConditions: human, plasma, 16 mg, IV infusion approx. 2 hour, 16 mg, Study Day 1, N 1
observable: Cmax (ng/mL)
Numbers only, in ng/mL.

Sample Nc1ncc(-c2cnn(CCO)c2)c2scc(-c3ccc(NC(=O)Nc4cccc(F)c4)cc3)c12 ; Cmax observed: 366

###

- protocolNotes: Pharmacokinetics of IV formulation in humans (Phase I, advanced solid tumors)
- Type: in vivo
- setupConditions: human, plasma, 8 mg, IV infusion approx. 2 hour, 8 mg, Study Day 1, mean ± SD, N 4
observable: Cmax (ng/mL)
Numbers only, in ng/mL.

Sample Nc1ncc(-c2cnn(CCO)c2)c2scc(-c3ccc(NC(=O)Nc4cccc(F)c4)cc3)c12 ; Cmax observed: 235

###

- protocolNotes: Solubility of free base in various media
- Format: physicochemical
- setupConditions: 10% Polysorbate 80 in water, aqueous with cosolvent or surfactant or cyclodextrin; read-out: Solubility
observable: solubility (µg/mL)
Numbers only, in µg/mL.

Sample Nc1ncc(-c2cnn(CCO)c2)c2scc(-c3ccc(NC(=O)Nc4cccc(F)c4)cc3)c12 ; solubility observed: 146

###

- protocolNotes: Solubility of free base in PEG-300/Cremophor EL/Ethanol vehicles
- Type: physicochemical
- setupConditions: PEG-300/Cremophor EL/Ethanol 42.5/42.5/15, organic solvent or mixture; PEG-300/Cremophor EL/Ethanol ratio 42.5/42.5/15; 5° C.; read-out: Solubility (mg/mL) at 5° C.
observable: solubility
Answer format: value, then unit.

Sample Nc1ncc(-c2cnn(CCO)c2)c2scc(-c3ccc(NC(=O)Nc4cccc(F)c4)cc3)c12 [API] ; solubility observed: 11.9 mg/mL

Sourced from patent US20150126545A1
